Test: Viability qHTS for spleen associated tyrosine kinase inhibitor (SYKi) naive MV4-11 cells (AID 1963823); note: nearly all actives have a fitted effect of over 40% in size
Conditions: MV4-11 AML viability, CellTiter-Glo luminescence, 72 h; series mostly up to 45 µM
Inconclusive results are not listed. The source made the active and inactive calls. Calls come from the whole dose curve; as a rule, active = well fitted cell-killing curve with a large enough effect; inconclusive = small, poorly fitted or top-dose-only effect, or effect the other way; inactive = no such curve, though single readings can be large or run the other way.
Your answer must be one of the following: True (active), False (inactive)

Dear colleague, could you share the recorded outcome for COC(=O)N1CCN(C(=O)Cc2ccc(Cl)c(Cl)c2)[C@@H](CN2CCCC2)C1 when you have a moment?
False

###

Assay: Quantitative highthroughput screen to assess conditional lethalithy of NOMO1 cells grown in Human Plasma-Like Medium with dialyzed fetal bovine serum (HPLM+ds) (AID 1963878); note: nearly all actives have a fitted effect of over 35% in size
Conditions: NOMO1 AML cells in HPLM+ds, CellTiter-Glo viability, 48 h; series mostly up to 45.8 µM
Inconclusive results are not listed. Activity calls are given as the source filed them. The call rests on the fitted dose curve; in most records, active means well fitted cell-killing curve with a large enough effect; inconclusive means small, poorly fitted or top-dose-only effect, or effect the other way; inactive means no such curve, though single readings can be large or run the other way.
Select the correct class. Options are t = active, f = inactive and nothing else.

Worked cases, answers included:
>>> label("COc1ccc2c(c1)CN(C)CC2c1ccc(Cl)c(Cl)c1 (stereo not given)")
"t"
>>> label("COc1cccc2c1[C@]13CCN(CC4CC4)[C@H](C2)[C@]1(OC)CCC(=O)C3")
"f"
>>> label("CCOP(=O)(OCC)C(C)NC(=O)N(CCCl)N=O (stereo not given)")
"f"
>>> label("NC1=NC(=O)N2CC12 (stereo not given)")
"t"
>>> label("C#CC1(O)CCC2C3CCC4=CC(=O)CCC4(C)C3CCC21C (stereo not given)")
"f"

// switching to the query compound
Which outcome was entered for the compound CN1CCN(C(=O)O[C@H]2c3nccnc3C(=O)N2c2ccc(Cl)cn2)CC1 in this test?
f
